System: AcTrxR-L
ASSAY METHOD TEXT: Inhibition of AcTrxR-L, direct DTNB reduction assay
Format: biochemical, Acanthamoeba castellanii
TEST PARAMETERS: after removal of the inhibitors by desalting; DTNB reduction; read-out: IC50 Desalted
Exercise: for every item that follows, state its recorded IC50.
Numbers only, in nM.

test_smiles=COc1ccc([N+](=O)[O-])c(S(=O)(=O)c2ccc(Cl)cc2)n1 attribute_measured=IC50 measured_result=370

Now for a further compound.
Query string: Can you look up the measured IC50 of CC(=O)OC[C@H]1O[C@@H]([S-])[C@H](OC(C)=O)[C@@H](OC(C)=O)[C@@H]1OC(C)=O.CCP(CC)CC.[Au+] for me?
Result string: 320

----------
Exercise: for every item that follows, state its recorded IC50.
ASSAYED SYSTEM: AcTrxR-L (Acanthamoeba castellanii, UniProt L8HG59)
Construct: gene ACA1_153040; recombinant selenoprotein from E. coli C321.ΔA (pABC2a, UAG as Sec codon, SECIS element); N-terminal His-SUMO removed with ULP1; homodimer with one FAD per subunit
Sequence (L8HG59 1-526): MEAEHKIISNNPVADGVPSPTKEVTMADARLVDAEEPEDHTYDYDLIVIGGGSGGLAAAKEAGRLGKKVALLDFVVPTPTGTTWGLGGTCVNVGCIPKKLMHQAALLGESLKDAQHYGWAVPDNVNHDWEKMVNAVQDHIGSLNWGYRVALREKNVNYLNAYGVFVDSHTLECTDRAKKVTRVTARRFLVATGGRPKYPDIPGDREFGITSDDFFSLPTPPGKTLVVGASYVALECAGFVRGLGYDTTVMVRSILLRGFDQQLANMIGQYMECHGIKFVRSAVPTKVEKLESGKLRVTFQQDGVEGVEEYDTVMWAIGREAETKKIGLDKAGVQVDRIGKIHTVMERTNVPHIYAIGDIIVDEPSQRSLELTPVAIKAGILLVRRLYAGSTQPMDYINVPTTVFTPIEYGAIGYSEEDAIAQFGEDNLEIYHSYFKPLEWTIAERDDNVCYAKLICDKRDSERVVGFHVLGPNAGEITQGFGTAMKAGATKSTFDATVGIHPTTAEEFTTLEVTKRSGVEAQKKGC
ASSAY METHOD TEXT: DTNB reduction at 412 nm (250 μM NADPH, 1 mM DTNB, TE buffer) after preincubation of 50 nM AcTrxR-L with inhibitor, 250 μM NADPH and 0.01 mg/ml BSA for 30 min (10 min in results), diluted 5-fold, without desalting.
Assay type: biochemical
TEST PARAMETERS: n = 2; read-out: IC50 (μM), Not desalted
One number for each entry, in µM.

compound=COc1ccc([N+](=O)[O-])c(S(=O)(=O)c2ccc(Cl)cc2)n1 measured_result=0.36

Now for a further compound.
Query string: Can you look up the measured IC50 of CC[PH](CC)(CC)[Au][S][C@@H]1O[C@H](COC(C)=O)[C@@H](OC(C)=O)[C@H](OC(C)=O)[C@H]1OC(C)=O [Auranofin, auranofin (Ridaura), gold-based compound] for me?
Result string: 0.32

----------
System: AcTrxR-L
ASSAY METHOD TEXT: Inhibition of AcTrxR-L, direct DTNB reduction assay
Type: biochemical, Acanthamoeba castellanii
TEST PARAMETERS: in presence of the inhibitors; 50 nM AcTrxR-L, DTNB reduction; read-out: IC50 Not desalted
ATTRIBUTE MEASURED: IC50 (µM)
Give bare numbers, in µM.

// batch mode: one IC50 value per listed entry
1. CC(=O)OC[C@H]1O[C@@H]([S-])[C@H](OC(C)=O)[C@@H](OC(C)=O)[C@@H]1OC(C)=O.CCP(CC)CC.[Au+] [Auranofin, auranofin]
2. COc1ccc([N+](=O)[O-])c(S(=O)(=O)c2ccc(Cl)cc2)n1 [TRi-1]

Result string:
1: 0.32; 2: 0.36
